- assay notes: Antiviral activity against 1 MOI BVDV NADL infected in MDBK cells assessed as reduction in viral titer after 22 hrs
- Assay type: functional, cell-based, Bovine viral diarrhea virus 1-NADL
- recorded conditions: Bovine viral diarrhea virus isolates and strains, MDBK, 22 h
reported metric: EC50 (nM)
One number for each entry, in nM.

compound=CCCOc1cccc(CCCN2C[C@H](O)[C@@H](O)[C@H](O)[C@H]2CO)c1 u=nM data_value=1200
compound=OC[C@@H]1[C@@H](O)[C@H](O)[C@@H](O)CN1CCCCCCOc1ccc(F)cc1 u=nM data_value=300
compound=OC[C@@H]1[C@@H](O)[C@H](O)[C@@H](O)CN1CCCCCCOc1ccccc1F u=nM data_value=2800
compound=OC[C@@H]1[C@@H](O)[C@H](O)[C@@H](O)CN1CCCc1cccc(OC2CCCCC2)c1 u=nM data_value=3500
compound=OC[C@@H]1[C@@H](O)[C@H](O)[C@@H](O)CN1CCC#CCCOc1cc(F)ccc1F u=nM data_value=47000

Below is a list of compounds. For each, state its recorded EC50.
1. OC[C@@H]1[C@@H](O)[C@H](O)[C@@H](O)CN1CCCCCCOc1ccc(C(F)(F)F)cc1
2. COc1ccccc1OCCCCCCN1C[C@H](O)[C@@H](O)[C@H](O)[C@H]1CO
3. CCC(O)(CC)CCCCCCN1C[C@H](O)[C@@H](O)[C@H](O)[C@H]1CO
4. CC/C=C\CCCCCN1C[C@H](O)[C@@H](O)[C@H](O)[C@H]1CO
5. Cc1cccc(OCCCCCCN2C[C@H](O)[C@@H](O)[C@H](O)[C@H]2CO)c1
6. CC(C)C(OCCCCCCN1C[C@H](O)[C@@H](O)[C@H](O)[C@H]1CO)C(C)C
7. OC[C@@H]1[C@@H](O)[C@H](O)[C@@H](O)CN1CCCCCCOc1ccccc1

[1100, 1000, 6200, 11000, 600, 7500, 900]

###

Would you mind telling me the reported inhibition at 10 µM of each entry?
- assay system: UniProtKB P11712
- Sequence (P11712 whole entry): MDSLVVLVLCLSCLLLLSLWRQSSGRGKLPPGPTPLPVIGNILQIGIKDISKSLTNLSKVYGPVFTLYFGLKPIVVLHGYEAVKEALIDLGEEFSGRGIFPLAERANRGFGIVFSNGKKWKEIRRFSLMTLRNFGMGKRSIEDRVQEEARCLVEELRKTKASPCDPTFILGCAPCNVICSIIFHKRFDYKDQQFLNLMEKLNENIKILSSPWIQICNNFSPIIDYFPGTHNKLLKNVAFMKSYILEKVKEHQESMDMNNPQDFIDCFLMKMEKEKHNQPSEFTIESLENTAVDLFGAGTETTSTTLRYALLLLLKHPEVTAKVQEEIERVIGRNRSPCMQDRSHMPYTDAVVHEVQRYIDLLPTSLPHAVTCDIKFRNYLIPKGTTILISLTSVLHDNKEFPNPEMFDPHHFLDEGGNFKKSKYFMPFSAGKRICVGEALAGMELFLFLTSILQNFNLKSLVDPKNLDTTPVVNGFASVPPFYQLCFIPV
- assay notes: Inhibition of human CYP2C9 at 10 uM
- Assay type: ADME
Give bare numbers, in %.

Record excerpt, results attached:
structure=CCC(O)(CC)CCCCCCN1C[C@H](O)[C@@H](O)[C@H](O)[C@H]1CO assay_system="UniProtKB P11712" reported_metric="inhibition at 10 µM" data_value=9.6
structure=Cc1cccc(OCCCCCCN2C[C@H](O)[C@@H](O)[C@H](O)[C@H]2CO)c1 assay_system="UniProtKB P11712" reported_metric="inhibition at 10 µM" data_value=8.9
structure=CCCOc1cccc(CCCN2C[C@H](O)[C@@H](O)[C@H](O)[C@H]2CO)c1 assay_system="UniProtKB P11712" reported_metric="inhibition at 10 µM" data_value=10.5
structure=OC[C@@H]1[C@@H](O)[C@H](O)[C@@H](O)CN1CCCCCCOc1cc(F)ccc1F assay_system="UniProtKB P11712" reported_metric="inhibition at 10 µM" data_value=7.1
structure=OC[C@@H]1[C@@H](O)[C@H](O)[C@@H](O)CN1CCCCCCOc1cccc(F)c1 assay_system="UniProtKB P11712" reported_metric="inhibition at 10 µM" data_value=6.2

Below is a list of compounds. For each, state its recorded inhibition at 10 µM.
1. COc1ccccc1OCCCCCCN1C[C@H](O)[C@@H](O)[C@H](O)[C@H]1CO
2. OC[C@@H]1[C@@H](O)[C@H](O)[C@@H](O)CN1CCCCCCOc1cccc(C(F)(F)F)c1
3. CCCC(CCC)OCCCCCCN1C[C@H](O)[C@@H](O)[C@H](O)[C@H]1CO
4. OC[C@@H]1[C@@H](O)[C@H](O)[C@@H](O)CN1CCCCCCOC1CCCCCC1

[11.7, 37.6, 43.5, 5]

Given `OC[C@@H]1[C@@H](O)[C@H](O)[C@@H](O)CN1CCCCCCOCc1ccccc1` , state its recorded inhibition at 10 µM. 10.7

###

- assay system: CYP1A2 (Homo sapiens)
- Sequence (P05177 whole entry): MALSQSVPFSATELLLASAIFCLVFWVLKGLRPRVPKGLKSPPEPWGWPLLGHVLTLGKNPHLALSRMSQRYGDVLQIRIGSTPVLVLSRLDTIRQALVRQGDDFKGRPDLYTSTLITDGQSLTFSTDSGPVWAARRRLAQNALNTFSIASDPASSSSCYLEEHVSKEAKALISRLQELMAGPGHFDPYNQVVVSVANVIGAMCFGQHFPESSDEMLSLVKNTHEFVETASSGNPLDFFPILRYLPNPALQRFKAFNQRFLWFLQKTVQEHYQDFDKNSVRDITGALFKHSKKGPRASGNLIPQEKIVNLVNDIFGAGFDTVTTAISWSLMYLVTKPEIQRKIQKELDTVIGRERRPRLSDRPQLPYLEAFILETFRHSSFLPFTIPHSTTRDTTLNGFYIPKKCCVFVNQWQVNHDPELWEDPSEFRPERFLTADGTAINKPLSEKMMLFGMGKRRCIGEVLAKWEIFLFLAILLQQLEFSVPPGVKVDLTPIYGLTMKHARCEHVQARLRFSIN
- assay notes: Inhibition of human CYP1A2 at 10 uM
- Format: ADME
reported metric: inhibition at 10 µM (%)
One number for each entry, in %.

Below is a list of molecules. For each, state its recorded inhibition at 10 µM.
1. CCCC(CCC)OCCCCCCN1C[C@H](O)[C@@H](O)[C@H](O)[C@H]1CO
2. OC[C@@H]1[C@@H](O)[C@H](O)[C@@H](O)CN1CCCCCCOCc1ccccc1
3. OC[C@@H]1[C@@H](O)[C@H](O)[C@@H](O)CN1CCCCCCOc1cccc(C(F)(F)F)c1
4. OC[C@@H]1[C@@H](O)[C@H](O)[C@@H](O)CN1CCCCCCOc1cccc(F)c1
5. Cc1cccc(OCCCCCCN2C[C@H](O)[C@@H](O)[C@H](O)[C@H]2CO)c1

2
17.3
0.2
0.2
21.4

###

- assay notes: Antiviral activity against 1 MOI BVDV NADL infected in MDBK cells assessed as reduction in viral titer after 22 hrs
- Type: functional, cell-based, Bovine viral diarrhea virus 1-NADL
- recorded conditions: mdbk
reported metric: EC50 (nM)
Give bare numbers, in nM.

Given `Cc1cccc(OCCCCCCN2C[C@H](O)[C@@H](O)[C@H](O)[C@H]2CO)c1.Cl` , state its recorded EC50. 400

###

- assay system: UniProtKB P08684
- Sequence (P08684 whole entry): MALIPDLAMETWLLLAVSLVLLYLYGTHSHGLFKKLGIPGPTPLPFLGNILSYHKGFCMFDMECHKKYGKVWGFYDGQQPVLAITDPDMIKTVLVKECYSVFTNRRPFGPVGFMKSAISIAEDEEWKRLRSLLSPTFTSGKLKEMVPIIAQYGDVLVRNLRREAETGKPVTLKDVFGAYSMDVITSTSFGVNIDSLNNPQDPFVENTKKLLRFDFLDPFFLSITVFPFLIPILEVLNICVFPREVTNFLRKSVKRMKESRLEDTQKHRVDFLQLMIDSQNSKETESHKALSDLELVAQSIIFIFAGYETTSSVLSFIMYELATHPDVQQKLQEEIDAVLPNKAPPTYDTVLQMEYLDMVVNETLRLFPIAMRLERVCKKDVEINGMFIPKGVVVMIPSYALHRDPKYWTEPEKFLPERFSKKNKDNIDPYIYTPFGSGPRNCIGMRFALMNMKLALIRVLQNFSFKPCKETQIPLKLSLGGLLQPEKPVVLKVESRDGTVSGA
- assay notes: Inhibition of human CYP3A4 using testosterone as substrate at 10 uM
- Assay type: ADME
- recorded conditions: 10 µM
reported metric: inhibition (INH) (%)
Answers are plain numbers, in %.

Record excerpt, results attached:
structure=OC[C@@H]1[C@@H](O)[C@H](O)[C@@H](O)CN1CCCCCCOc1cccc(C(F)(F)F)c1 data_value=3.2
structure=OC[C@@H]1[C@@H](O)[C@H](O)[C@@H](O)CN1CCCCCCOC1CCCCCC1 data_value=3.1
structure=Cc1cccc(OCCCCCCN2C[C@H](O)[C@@H](O)[C@H](O)[C@H]2CO)c1 data_value=2.3

Below is a list of compounds. For each, state its recorded inhibition (INH).
1. CCCC(CCC)OCCCCCCN1C[C@H](O)[C@@H](O)[C@H](O)[C@H]1CO
2. OC[C@@H]1[C@@H](O)[C@H](O)[C@@H](O)CN1CCCCCCOCc1ccccc1

[4.2, 3.3]

###

- assay notes: Plasma protein binding in rat plasma
- Format: ADME, cell-free
- recorded conditions: read-out: PPB (converted)
Response field label: string, one of fulfilled (fraction unbound strictly below 0.3) or not fulfilled.

Could you please tell me whether fraction unbound recorded for `OC[C@@H]1[C@@H](O)[C@H](O)[C@@H](O)CN1CCCCCCOc1cccc(C(F)(F)F)c1` is less than 0.3? fulfilled

Could you please tell me whether fraction unbound recorded for `OC[C@@H]1[C@@H](O)[C@H](O)[C@@H](O)CN1CCCCCCOc1cc(F)ccc1F` is less than 0.3? not fulfilled

Could you please tell me whether fraction unbound recorded for `OC[C@@H]1[C@@H](O)[C@H](O)[C@@H](O)CN1CCCCCCOc1cccc(F)c1` is less than 0.3? fulfilled

###

- assay notes: Oral bioavailability in Sprague-Dawley rat at 25 mg/kg
- Type: ADME, organism-based
- recorded conditions: in vivo
reported metric: bioavailability (%)
Numbers only, in %.

Given `CCC(O)(CC)CCCCCCN1C[C@H](O)[C@@H](O)[C@H](O)[C@H]1CO` , state its recorded bioavailability. 56

###

- assay system: CYP2C19 (Homo sapiens)
- Sequence (P33261 whole entry): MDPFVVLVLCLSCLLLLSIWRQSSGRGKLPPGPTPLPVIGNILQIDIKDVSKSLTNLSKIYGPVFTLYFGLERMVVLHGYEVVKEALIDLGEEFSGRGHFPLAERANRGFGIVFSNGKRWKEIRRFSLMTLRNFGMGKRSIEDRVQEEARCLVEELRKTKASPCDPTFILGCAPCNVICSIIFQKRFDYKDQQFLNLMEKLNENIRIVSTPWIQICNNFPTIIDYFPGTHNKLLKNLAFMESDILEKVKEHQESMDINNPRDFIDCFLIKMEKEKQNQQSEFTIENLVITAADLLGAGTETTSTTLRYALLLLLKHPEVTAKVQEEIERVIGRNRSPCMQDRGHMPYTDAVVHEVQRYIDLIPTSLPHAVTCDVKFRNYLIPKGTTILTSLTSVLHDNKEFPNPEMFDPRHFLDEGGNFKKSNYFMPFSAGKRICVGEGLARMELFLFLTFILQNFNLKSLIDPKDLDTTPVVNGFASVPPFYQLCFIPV
- assay notes: Inhibition of human CYP2C19 at 10 uM
- Assay type: ADME
reported metric: inhibition at 10 µM (%)
Give bare numbers, in %.

Record excerpt, results attached:
structure=OC[C@@H]1[C@@H](O)[C@H](O)[C@@H](O)CN1CCCCCCOc1cc(F)ccc1F assay_system="CYP2C19 (Homo sapiens)" data_value=1.6
structure=CCCOc1cccc(CCCN2C[C@H](O)[C@@H](O)[C@H](O)[C@H]2CO)c1 assay_system="CYP2C19 (Homo sapiens)" data_value=2.8
structure=OC[C@@H]1[C@@H](O)[C@H](O)[C@@H](O)CN1CCCCCCOCc1ccccc1 assay_system="CYP2C19 (Homo sapiens)" data_value=14.2
structure=Cc1cccc(OCCCCCCN2C[C@H](O)[C@@H](O)[C@H](O)[C@H]2CO)c1 assay_system="CYP2C19 (Homo sapiens)" data_value=3.9
structure=OC[C@@H]1[C@@H](O)[C@H](O)[C@@H](O)CN1CCCCCCOc1cccc(F)c1 assay_system="CYP2C19 (Homo sapiens)" data_value=0.7

Below is a list of compounds. For each, state its recorded inhibition at 10 µM.
1. CCC(O)(CC)CCCCCCN1C[C@H](O)[C@@H](O)[C@H](O)[C@H]1CO
2. COc1ccccc1OCCCCCCN1C[C@H](O)[C@@H](O)[C@H](O)[C@H]1CO

37
-4.4

Below is a list of compounds. For each, state its recorded inhibition at 10 µM.
1. OC[C@@H]1[C@@H](O)[C@H](O)[C@@H](O)CN1CCCCCCOC1CCCCCC1
2. CCCC(CCC)OCCCCCCN1C[C@H](O)[C@@H](O)[C@H](O)[C@H]1CO

-4.9
-1.1

Given `OC[C@@H]1[C@@H](O)[C@H](O)[C@@H](O)CN1CCCCCCOc1cccc(C(F)(F)F)c1` , state its recorded inhibition at 10 µM. -2.5
